Molecular target: human 5-HT1A receptors (Homo sapiens, UniProt P08908)
Sequence (P08908 1-422): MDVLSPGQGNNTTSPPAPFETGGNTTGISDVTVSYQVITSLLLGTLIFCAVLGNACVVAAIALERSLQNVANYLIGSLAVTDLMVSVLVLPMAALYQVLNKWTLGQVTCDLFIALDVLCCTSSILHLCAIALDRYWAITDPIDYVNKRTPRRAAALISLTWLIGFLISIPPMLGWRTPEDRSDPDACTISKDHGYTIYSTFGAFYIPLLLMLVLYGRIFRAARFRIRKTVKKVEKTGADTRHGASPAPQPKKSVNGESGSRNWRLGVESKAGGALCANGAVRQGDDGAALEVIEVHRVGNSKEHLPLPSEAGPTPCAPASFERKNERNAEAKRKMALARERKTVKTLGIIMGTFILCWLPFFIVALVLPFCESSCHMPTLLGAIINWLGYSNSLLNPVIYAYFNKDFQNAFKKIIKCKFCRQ
Assay: 35S-GTPγS binding assay, membranes containing cloned human 5-HT1A receptors
Conditions: agonist potency; read-out: 5-HT1A Function GTPγS EC50
endpoint label: EC50 (nM)
Return type: number; implicit unit nM.

stdin: Answer with the recorded EC50 of COc1ccc(C(N)=O)c2c1OC[C@H](NCCCc1c[nH]c3ccc(F)cc13)C2 only.
stdout: 489

---

molecular target: human 5-HT1A receptors (Homo sapiens, UniProt P08908); assay: 8-OH-DPAT binding in CHO cells stably transfected with human 5HT1a receptor; details: displacement of [3H]8-OH-DPAT, CHO cells with human 5-HT1A; read-out: 5-HT1A Receptor Affinity Ki
endpoint label: pKi
In plain terms, pKi is the concentration in mol/L turned into minus its base-10 logarithm.

Completed entries (count: 4):
>  <compound>
COc1ccc(C(N)=O)c2c1OC[C@H](N(CCCC1CNc3ccc(F)cc31)C1CCC1)C2 (stereo partly shown) [Example 19]

>  <pKi>
7.36

$$$$
>  <compound>
CNc1ccc(C(N)=O)c2c1OC[C@H](N(CCCc1c[nH]c3ccc(F)cc13)C1CCC1)C2 [Example 25]

>  <pKi>
7.29

$$$$
>  <compound>
COc1ccc(C(N)=O)c2c1OC[C@H](N(C)CCCc1c[nH]c3ccc(F)cc13)C2 [Example 15]

>  <pKi>
5.77

$$$$
>  <compound>
COc1ccc(C(N)=O)c2c1OC[C@H](NCCCc1c[nH]c3ccc(F)cc13)C2 [Example 1]

>  <pKi>
6.95

$$$$

Let us move to another entry and its pKi.
stdin: Report value: pKi, system: human 5-HT1A receptors (Homo sapiens, UniProt P08908), compound: CCc1ccc(C(N)=O)c2c1OC[C@H](N(CCCc1c[nH]c3ccc(F)cc13)C1CCC1)C2 [Example 21]
stdout: 8.23

---

Parameter log10 IC50, tested on human 5-HT1A receptors (Homo sapiens, UniProt P08908), listed per item.
Would you kindly interpret these values as log10 of IC50 expressed in µM?

>  <smiles structure>
CCN(CCCc1c[nH]c2ccc(F)cc12)[C@H]1COc2c(OC)ccc(C(N)=O)c2C1

>  <log10 IC50>
0.14

$$$$
>  <smiles structure>
CCCCN(CCCc1c[nH]c2ccc(F)cc12)[C@H]1COc2c(OC)ccc(C(N)=O)c2C1

>  <log10 IC50>
0.48

$$$$
>  <smiles structure>
COc1ccc(C(N)=O)c2c1OC[C@H](N(CCCc1c[nH]c3ccc(F)cc13)C1CCC1)C2

>  <log10 IC50>
-0.92

$$$$

Let us move to another entry and its log10 IC50.
stdin: Report value: log10 IC50, system: human 5-HT1A receptors (Homo sapiens, UniProt P08908), compound: CC(C)Oc1ccc(C(N)=O)c2c1OC[C@H](N(CCCc1c[nH]c3ccc(F)cc13)C1CCC1)C2
stdout: 0.50

---

Molecular target: human 5-HT1A receptors (Homo sapiens)
Sequence (P08908 1-422): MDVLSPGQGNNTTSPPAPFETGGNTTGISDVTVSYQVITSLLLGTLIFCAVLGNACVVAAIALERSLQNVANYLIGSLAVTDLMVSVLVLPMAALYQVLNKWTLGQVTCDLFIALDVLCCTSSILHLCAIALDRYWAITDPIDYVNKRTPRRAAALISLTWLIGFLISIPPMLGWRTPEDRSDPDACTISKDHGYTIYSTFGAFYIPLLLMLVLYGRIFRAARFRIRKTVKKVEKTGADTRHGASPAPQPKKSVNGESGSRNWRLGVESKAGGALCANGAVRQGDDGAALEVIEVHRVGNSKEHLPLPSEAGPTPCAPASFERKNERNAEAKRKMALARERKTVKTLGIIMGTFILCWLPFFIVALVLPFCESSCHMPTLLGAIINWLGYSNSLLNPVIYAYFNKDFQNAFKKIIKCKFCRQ
Test: 8-OH-DPAT binding in CHO cells stably transfected with human 5HT1a receptor
Conditions: displacement of [3H]8-OH-DPAT, CHO cells with human 5-HT1A; read-out: 5-HT1A Receptor Affinity Ki
endpoint label: Ki

Completed entries (count: 5):
>  <smiles structure>
CSc1ccc(C(N)=O)c2c1OC[C@H](N(CCCc1c[nH]c3ccc(F)cc13)C1CCC1)C2

>  <Ki>
16.9 nM

$$$$
>  <smiles structure>
CC(C)Oc1ccc(C(N)=O)c2c1OC[C@H](N(CCCc1c[nH]c3ccc(F)cc13)C1CCC1)C2

>  <Ki>
35.3 nM

$$$$
>  <smiles structure>
COc1ccc(C(N)=O)c2c1OC[C@H](N(CCCc1c[nH]c3ccc(F)cc13)CC(C)C)C2

>  <Ki>
214 nM

$$$$
>  <smiles structure>
CCOc1ccc(C(N)=O)c2c1OC[C@H](N(CCCc1c[nH]c3ccc(F)cc13)C1CCC1)C2

>  <Ki>
108 nM

$$$$
>  <smiles structure>
COc1ccc(C(N)=O)c2c1OC[C@H](N(CCCc1c[nH]c3ccc(F)cc13)CCC(F)(F)F)C2

>  <Ki>
636 nM

$$$$

stdin: Answer with the recorded Ki of COc1ccc(C(N)=O)c2c1OC[C@H](N(CCCc1c[nH]c3c(F)cc(F)cc13)C1CCC1)C2 only.
stdout: 61.3 nM

stdin: Answer with the recorded Ki of COc1ccc(C(N)=O)c2c1OC[C@H](N(CCCc1c[nH]c3ccc(F)cc13)CC1CC1)C2 only.
stdout: 25.5 nM

---

Listed next: entries and their corresponding EC50.
Biological target: h5HT1a receptor (Homo sapiens)
Sequence (P08908 1-422): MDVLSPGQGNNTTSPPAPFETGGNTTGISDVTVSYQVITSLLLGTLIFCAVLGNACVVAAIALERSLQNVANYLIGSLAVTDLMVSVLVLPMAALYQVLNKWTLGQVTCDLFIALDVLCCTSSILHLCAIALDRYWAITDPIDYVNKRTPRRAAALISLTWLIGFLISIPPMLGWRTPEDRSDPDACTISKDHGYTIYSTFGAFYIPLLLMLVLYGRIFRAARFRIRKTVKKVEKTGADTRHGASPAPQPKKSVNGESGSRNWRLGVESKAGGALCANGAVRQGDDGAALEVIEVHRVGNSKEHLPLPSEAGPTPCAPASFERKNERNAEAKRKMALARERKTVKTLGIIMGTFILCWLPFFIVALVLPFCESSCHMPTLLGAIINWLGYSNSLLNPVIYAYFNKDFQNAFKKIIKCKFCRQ
Assay: cAMP RIA in CHO cells stably transfected with the h5HT1a receptor
Conditions: agonist; forskolin-stimulated cAMP; read-out: 5-HT1A Function cAMP EC50

>  <smiles structure>
CCCOc1ccc(C(N)=O)c2c1OC[C@H](N(CCCc1c[nH]c3ccc(F)cc13)C1CCC1)C2

>  <EC50>
151 nM

$$$$
>  <smiles structure>
CNC(=O)c1ccc(OC)c2c1C[C@@H](N(CCCc1c[nH]c3ccc(F)cc13)C1CCC1)CO2

>  <EC50>
323 nM

$$$$
>  <smiles structure>
CC(C)Oc1ccc(C(N)=O)c2c1OC[C@H](N(CCCc1c[nH]c3ccc(F)cc13)C1CCC1)C2

>  <EC50>
118 nM

$$$$

Let us move to another entry and its EC50.
stdin: Answer with the recorded EC50 of CCc1ccc(C(N)=O)c2c1OC[C@H](N(CCCc1c[nH]c3ccc(F)cc13)C1CCC1)C2 only.
stdout: 15.6 nM

---

Target: h5HT1a receptor (Homo sapiens, UniProt P08908)
Sequence (P08908 1-422): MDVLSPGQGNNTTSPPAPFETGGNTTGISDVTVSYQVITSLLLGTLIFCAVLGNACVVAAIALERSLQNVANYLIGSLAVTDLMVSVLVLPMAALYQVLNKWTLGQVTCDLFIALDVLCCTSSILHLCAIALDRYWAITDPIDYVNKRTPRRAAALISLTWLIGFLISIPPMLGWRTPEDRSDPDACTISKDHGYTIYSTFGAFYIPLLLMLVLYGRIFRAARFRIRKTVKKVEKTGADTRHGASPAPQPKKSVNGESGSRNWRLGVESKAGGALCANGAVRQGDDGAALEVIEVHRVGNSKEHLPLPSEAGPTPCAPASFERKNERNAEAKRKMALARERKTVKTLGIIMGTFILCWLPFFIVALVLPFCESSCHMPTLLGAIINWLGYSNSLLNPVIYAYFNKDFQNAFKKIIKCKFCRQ
Assay: cAMP RIA in CHO cells stably transfected with the h5HT1a receptor
Details: antagonist; reversal of agonist 8-OH-DPAT; read-out: 5-HT1A Function cAMP IC50
Listed next: entries and their corresponding pIC50.
In plain terms, pIC50 is the concentration in mol/L turned into minus its base-10 logarithm.

Completed entries (count: 5):
>  <compound>
CCSc1ccc(C(N)=O)c2c1OC[C@H](N(CCCc1c[nH]c3ccc(F)cc13)C1CCC1)C2

>  <pIC50>
6.86

$$$$
>  <compound>
CCCCN(CCCc1c[nH]c2ccc(F)cc12)[C@H]1COc2c(OC)ccc(C(N)=O)c2C1

>  <pIC50>
6.43

$$$$
>  <compound>
CCOc1ccc(C(N)=O)c2c1OC[C@H](N(CCCc1c[nH]c3ccc(F)cc13)C1CCC1)C2

>  <pIC50>
6.11

$$$$
>  <compound>
COc1ccc(C(N)=O)c2c1OC[C@H](N(CCCc1c[nH]c3ccc(F)cc13)CC1CC1)C2

>  <pIC50>
6.36

$$$$
>  <compound>
COc1ccc(C(N)=O)c2c1OC[C@H](N(CCCC1CNc3ccc(F)cc31)C1CCC1)C2 (stereo partly drawn)

>  <pIC50>
7.00

$$$$

stdin: Report value: pIC50, system: h5HT1a receptor (Homo sapiens, UniProt P08908), compound: COc1ccc(C(N)=O)c2c1OC[C@H](N(CCCc1c[nH]c3ccc(F)cc13)C1CCC1)C2
stdout: 7.04

stdin: Report value: pIC50, system: h5HT1a receptor (Homo sapiens, UniProt P08908), compound: COc1ccc(C(N)=O)c2c1OC[C@H](N(CCCc1c[nH]c3c(F)cc(F)cc13)C1CCC1)C2
stdout: 7.03

stdin: Report value: pIC50, system: h5HT1a receptor (Homo sapiens, UniProt P08908), compound: CNc1ccc(C(N)=O)c2c1OC[C@H](N(CCCc1c[nH]c3ccc(F)cc13)C1CCC1)C2
stdout: 6.85

stdin: Report value: pIC50, system: h5HT1a receptor (Homo sapiens, UniProt P08908), compound: CSc1ccc(C(N)=O)c2c1OC[C@H](N(CCCc1c[nH]c3ccc(F)cc13)C1CCC1)C2
stdout: 7.22

Values were extracted from patent US20080221193A1.
